Cited source: patent US8883963B2

Collected % degradation of peptidomimetics in 24 h when incubated with DPP-IV enzyme values appear next to each entry.
System name: DPP IV (Homo sapiens, UniProt P27487)
Sequence (P27487 whole entry, species assumed): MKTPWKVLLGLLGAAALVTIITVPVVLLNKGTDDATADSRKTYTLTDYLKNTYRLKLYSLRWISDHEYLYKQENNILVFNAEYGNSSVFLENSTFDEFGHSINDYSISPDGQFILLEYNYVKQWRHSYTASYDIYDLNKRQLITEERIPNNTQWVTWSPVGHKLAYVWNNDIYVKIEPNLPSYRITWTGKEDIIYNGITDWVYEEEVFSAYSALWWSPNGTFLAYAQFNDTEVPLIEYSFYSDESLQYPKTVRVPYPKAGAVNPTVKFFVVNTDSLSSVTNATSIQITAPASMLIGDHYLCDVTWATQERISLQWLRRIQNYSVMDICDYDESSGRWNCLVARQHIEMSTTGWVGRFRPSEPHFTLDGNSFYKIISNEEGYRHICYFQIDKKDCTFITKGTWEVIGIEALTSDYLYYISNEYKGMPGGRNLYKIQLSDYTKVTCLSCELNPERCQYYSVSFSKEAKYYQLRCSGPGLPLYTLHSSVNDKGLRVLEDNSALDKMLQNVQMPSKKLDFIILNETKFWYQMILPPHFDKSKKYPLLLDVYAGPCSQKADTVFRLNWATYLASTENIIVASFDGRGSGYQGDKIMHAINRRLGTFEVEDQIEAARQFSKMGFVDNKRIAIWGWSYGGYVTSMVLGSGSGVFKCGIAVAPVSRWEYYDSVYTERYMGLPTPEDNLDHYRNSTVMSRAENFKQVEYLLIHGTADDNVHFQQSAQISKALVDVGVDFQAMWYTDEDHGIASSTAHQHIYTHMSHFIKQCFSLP
Protocol notes: Stability against DPP IV enzyme
Format: in vitro ADME
Assay context: 2 μM peptidomimetic, 37° C., 24 h
Starred links: 1 amine or outer side, 2 acyl side, 3 side chain; linkers in the order of their positions; H or OH if unused. Non-standard residues stand in square brackets, D forms with d. Residues, ends and D or L forms follow the SMILES beside them. ξ: configuration not given here. Leu(5,5,5,5',5',5'-F6) = N[C@@H](CC(C(F)(F)F)C(F)(F)F)C(=O)O; ξBip(2'-Et-4'-OMe) = CCc1cc(OC)ccc1-c1ccc(CC(N)C(=O)O)cc1; X1 = O=C(C(CCCc1ccc(C(F)(F)F)cc1F)N[*:1])[*:2]; ξNva(5-(3-Cl-Ph)) = NC(CCCc1cccc(Cl)c1)C(=O)O; ξαMePhe(2-F) = CC(N)(Cc1ccccc1F)C(=O)O; Aib = CC(C)(N)C(=O)O
Dear colleague, please return just the value in %, with no unit written.

CCc1cc(OC)ccc1-c1ccc(CC(NC(=O)[C@H](CC(=O)O)NC(=O)[C@H](CO)NC(=O)[C@@H](NC(=O)[C@H](Cc2ccccc2)NC(=O)[C@@H](NC(=O)CNC(=O)C(CCC#N)NC(=O)C(C)(C)NC(=O)[C@@H](N)Cc2c[nH]cn2)[C@@H](C)O)[C@@H](C)O)C(=O)NC(CCCc2ccccc2C(F)(F)F)C(N)=O)cc1 (single isomer, unassigned)
86
CCc1cc(OC)ccc1-c1ccc(CC(NC(=O)[C@H](CC(=O)O)NC(=O)[C@H](CO)NC(=O)[C@@H](NC(=O)C(C)(Cc2ccccc2F)NC(=O)[C@@H](NC(=O)CNC(=O)[C@H](CC(C(F)(F)F)C(F)(F)F)NC(=O)C(C)(C)NC(=O)[C@@H](N)Cc2c[nH]cn2)[C@@H](C)O)[C@@H](C)O)C(=O)NC(CCCc2cccc(Cl)c2)C(N)=O)cc1 (stereo partly shown) [compound 236] (H-H[Aib][Leu(5,5,5,5',5',5'-F6)]GT[ξαMePhe(2-F)]TSD[ξBip(2'-Et-4'-OMe)][ξNva(5-(3-Cl-Ph))]-NH2)
00
CCc1cc(OC)ccc1-c1ccc(CC(NC(=O)[C@H](CC(=O)O)NC(=O)[C@H](CO)NC(=O)[C@@H](NC(=O)[C@H](Cc2ccccc2)NC(=O)[C@@H](NC(=O)CNC(=O)[C@H](CCC(N)=O)NC(=O)C(C)(C)NC(=O)[C@@H](N)Cc2c[nH]cn2)[C@@H](C)O)[C@@H](C)O)C(=O)NC(CCCc2cccc(Cl)c2)C(N)=O)cc1 (single isomer, unassigned)
86
CCc1cc(OC)ccc1-c1ccc(CC(NC(=O)[C@H](CC(=O)O)NC(=O)[C@H](CO)NC(=O)[C@@H](NC(=O)[C@H](Cc2ccccc2)NC(=O)[C@@H](NC(=O)CNC(=O)[C@H](CCC(N)=O)NC(=O)C(C)(C)NC(=O)[C@@H](N)Cc2c[nH]cn2)[C@@H](C)O)[C@@H](C)O)C(=O)NC(CCCc2ccc(C(F)(F)F)cc2F)C(N)=O)cc1 (stereo partly shown) [compound 65] (H-H[Aib]QGTFTSD[ξBip(2'-Et-4'-OMe)][X1]-NH2)
76
CCc1cc(OC)ccc1-c1ccc(CC(CNC(CCCc2ccccc2)C(N)=O)NC(=O)[C@H](CC(=O)O)NC(=O)[C@H](CO)NC(=O)[C@@H](NC(=O)C(C)(Cc2ccccc2F)NC(=O)[C@@H](NC(=O)CNC(=O)C(CCC#N)NC(=O)C(C)(C)NC(=O)[C@@H](N)Cc2c[nH]cn2)[C@H](C)O)[C@H](C)O)cc1 (single isomer, unassigned)
00

Notebook: CCc1cc(OC)ccc1-c1ccc(CC(NC(=O)[C@H](CC(=O)O)NC(=O)[C@H](CO)NC(=O)[C@@H](NC(=O)[C@H](Cc2ccccc2)NC(=O)[C@@H](NC(=O)CNC(=O)[C@H](CCC(N)=O)NC(=O)C(C)(C)NC(=O)[C@@H](N)Cc2c[nH]cn2)[C@@H](C)O)[C@@H](C)O)C(=O)NC(CCCc2ccc(OC)cc2Cl)C(N)=O)cc1 (single isomer, unassigned) , % degradation of peptidomimetics in 24 h when incubated with DPP-IV enzyme read as 74

Reported % degradation of peptidomimetics in 24 h when incubated with DPP-IV enzyme of CCc1cc(OC)ccc1-c1ccc(CC(C(=O)N(C)C(CCCc2ccccc2)C(N)=O)N(C)C(=O)[C@H](CC(=O)O)NC(=O)[C@H](CO)NC(=O)[C@@H](NC(=O)C(C)(Cc2ccccc2F)NC(=O)[C@@H](NC(=O)CNC(=O)C(CCC#N)NC(=O)C(C)(C)NC(=O)[C@@H](N)Cc2c[nH]cn2)[C@H](C)O)[C@H](C)O)cc1 (single isomer, unassigned) : 77

get_value(item= CCc1cc(OC)ccc1-c1ccc(CC(NC(=O)[C@H](CC(=O)O)NC(=O)[C@H](CO)NC(=O)[C@@H](NC(=O)[C@H](Cc2ccccc2)NC(=O)[C@@H](NC(=O)CNC(=O)C(CCC#N)NC(=O)C(C)(C)NC(=O)[C@@H](N)Cc2c[nH]cn2)[C@@H](C)O)[C@@H](C)O)C(=O)NC(CCCc2ccc(F)cc2C(F)(F)F)C(N)=O)cc1 (single isomer, unassigned) , readout=% degradation of peptidomimetics in 24 h when incubated with DPP-IV enzyme) returns 72

% degradation of peptidomimetics in 24 h when incubated with DPP-IV enzyme for CCc1cc(OC)ccc1-c1ccc(CC(NC(=O)[C@H](CC(=O)O)NC(=O)[C@H](CO)NC(=O)[C@@H](NC(=O)C(C)(Cc2ccccc2F)NC(=O)[C@@H](NC(=O)CNC(=O)C(CCC#N)NC(=O)C(C)(C)NC(=O)[C@@H](N)Cc2c[nH]cn2)[C@H](C)O)[C@H](C)O)C(=O)NC(CCCc2ccccc2F)C(N)=O)cc1 (single isomer, unassigned) is 00

response.value for CCc1cc(OC)ccc1-c1ccc(CC(NC(=O)[C@H](CC(=O)O)NC(=O)[C@H](CO)NC(=O)[C@@H](NC(=O)[C@H](Cc2ccccc2)NC(=O)[C@@H](NC(=O)CNC(=O)C(CCC#N)NC(=O)C(C)(C)NC(=O)[C@@H](N)Cc2c[nH]cn2)[C@@H](C)O)[C@@H](C)O)C(=O)NC(CCCc2ccccc2)C(N)=O)cc1 (single isomer, unassigned) (field: % degradation of peptidomimetics in 24 h when incubated with DPP-IV enzyme) = 00
